Test system: HeLa
Experiment: Primary qHTS to identify gynecologic anti-cancer compounds using libraries of approved drugs and bioactive compounds (AID 1345084); also: % is scaled to controls: 0 for no effect and ±100 for the full control effect; nearly all actives have a fitted effect of over 55% in size
Conditions: Gynecologic cancer cell panel viability, ATPlite luminescence, 48 h; series mostly up to 57.5 µM
Records with an inconclusive call do not appear. Active and inactive are the calls of the source. Calls follow the shape of the dose curve; as a rule, active = well fitted cell-killing curve with a large enough effect; inconclusive = small, poorly fitted or top-dose-only effect, or effect the other way; inactive = flat fitted curve, though single readings scatter.
RECORDED ENDPOINT: activity change, negative = cytotoxicity

# annotated cases, reported activity change, negative = cytotoxicity shown
COMPOUND	RECORDED ENDPOINT	RESULT VALUE
CC(C)c1cc2c(c(O)c1O)[C@@]13CCCC(C)(C)C1[C@@H](O)[C@@H]2OC3=O (stereo partly specified)	activity change, negative = cytotoxicity	inactive
CC(C)CC(=O)O[C@@H]1O[C@H](CO)[C@@H](O[C@H]2O[C@H](C)[C@@H](N[C@H]3C=C(CO)[C@@H](O[C@H]4O[C@H](CO)[C@@H](O[C@H]5O[C@H](CO)[C@@H](O[C@H]6O[C@H](CO)[C@@H](O)[C@H](O)[C@H]6O)[C@H](O)[C@H]5O)[C@H](O)[C@H]4O)[C@H](O)[C@H]3O)[C@H](O)[C@H]2O)[C@H](O)[C@H]1O	activity change, negative = cytotoxicity	-0.344% [at 11.6 µM] (inactive)
CO[C@@H]1[C@]2(O)C(=O)N3/C=C\C(C)(C)c4[nH]c5ccccc5c4/C=C\3C(=O)N2[C@]23[C@H](CO)C(C)(C)N2c2ccccc2[C@]13O	activity change, negative = cytotoxicity	inactive
CC(=O)OC1CC(C(C)(C)O)OC2CCC3(C)OC4=C(C(=O)C=C5C(C)C(OC(C)=O)C6(C)C(C)OC546)C(O)C3C12C (stereo unspecified)	activity change, negative = cytotoxicity	inactive
O=C(/C=C/c1ccc(O)cc1)O[C@@H]1C[C@@](O)(C(=O)O)C[C@@H](O)[C@@H]1O	activity change, negative = cytotoxicity	inactive

Next compound, please.
Notebook: CCCC(=O)Nc1cccc(NC(=O)c2ccccc2Br)c1 , activity change, negative = cytotoxicity read as inactive

---

Target: Cytochrome P450 2D6 (Homo sapiens)
Experiment: Cytochrome P450 family 2 subfamily D member 6 (CYP2D6) small molecule antagonists: luciferase biochemical (cell-free) qHTS assay (AID 1645840); also: nearly all actives have a fitted effect of over 55% in size
Conditions: P450-Glo CYP2D6 enzyme, luciferin luminescence, 1 h; series mostly up to 57.4 µM
Results filed as inconclusive are left out. Activity calls are given as the source filed them. Calls follow the shape of the dose curve; as a rule, active = well fitted inhibition curve with a large enough effect in the repeat runs; inconclusive = weak or mixed curves; inactive = flat fitted curve, though single readings scatter.
Answer with one of the outcomes yes (1) = active, no (0) = inactive

Field: example entries. Status: answers known.
COMPOUND	LABEL
CCNC(=O)OC1CCN(c2nncc3cc(OC)c(OC)cc23)CC1	yes (1)
COC(=O)[C@H](Cc1ccc([N+](=O)[O-])cc1)NC(=O)c1cccc2ccccc12	yes (1)
COc1ccccc1N1CCN(CCCCNC(=O)c2ccc(-c3cscn3)cc2)CC1	yes (1)
Cc1cccc(NC(=O)CN2CCC(c3ccccn3)CC2)c1	yes (1)
Cc1cc(-c2nncc3c(C(C)(C)C)c(OCc4ncnn4C)nn23)no1	no (0)
Cc1[nH]c2ccccc2c1CC(=O)N[C@@H](Cc1ccccc1)C(=O)N(C)c1ccccc1	yes (1)
c1cc(-c2cc(C3CCNCC3)[nH]n2)ccn1	yes (1)
CCOC(=O)c1ccc(NC2CCCCC2)c(N)c1	yes (1)
CNC(C)C(=O)NC(C(=O)N1CCCC1C(=O)Nc1cccc2ncccc12)C(C)C (configuration not stated)	no (0)
CC(C(=O)Nc1cc(C#N)ccc1CCCC(=O)O)c1ccc(F)c2ccccc12 (configuration not stated)	no (0)

stdin: What call does the record list for COc1cccc(Cn2ncc3c4sc(S(C)=O)cc4n(C)c3c2=O)c1 (configuration not stated) ?
stdout: yes (1)

stdin: How was O=C(O)CC1CCC(c2ccc(NC(=O)c3nnc(Nc4ccc(F)c(F)c4)o3)cc2)CC1 (configuration not stated) classified in this test?
stdout: no (0)

stdin: Called result for CCCC(C(=O)O)c1c(C)nc2ccc(Cl)cc2c1-c1ccccc1 (configuration not stated)
stdout: no (0)

stdin: GET /call?item= CCOc1nc2c(N)ncnc2n1CC returns the recorded outcome of this test.
stdout: no (0)

stdin: Name the outcome recorded for COc1ccc(-n2[nH]c3c(cnc4ccccc43)c2=O)cc1 in the assay.
stdout: no (0)

stdin: Given CCC1(O)CC2c3cc(OC)c(OC)cc3CCN2CC1CC(C)C (configuration not stated) , state the outcome it received in this test.
stdout: yes (1)

stdin: Called result for COc1ccc(Oc2c(Cl)cnn(C3c4ccccc4-c4ccccc43)c2=O)cc1
stdout: no (0)
